assay: NCI Yeast Anticancer Drug Screen. Data for the cln2 rad14 strain (AID 165);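 note: 0% = growth equal to vehicle treated cultures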; conditions: S. cerevisiae cln2 rad14 strain, hits give high values; at 50.0 µM unless noted
Compounds without any hit were thinned out: in the full panel of roughly 79,000, 15% have a hit. Calls of active or inactive are those of the source. Cut-off read from the data, not from the text of the source: active = growth inhibition above about 70%; inactive = the rest.
Reported Metric: growth inhibition

# example entries with known answers
| Molecule | growth inhibition |
| --- | --- |
| COC(=O)C(CCSc1ccccc1)C(=O)OC | 12.1% (inactive) |
| C[N+](C)=c1nc(N2CCOCC2)ss1 | 8.95% (inactive) |
| O=P(O)(O)OC1OC(CO)C(O)C(O)C1O (centres undefined) | -25.6% (inactive) |
| CNCc1cc(Br)cc(Br)c1O | -43.1% (inactive) |
| NC(=O)C(O)c1c[nH]c2ccccc12 (centres undefined) | 6.4% (inactive) |
| NC(=O)C(N)CC12CC3CC(CC(C3)C1)C2 (centres undefined) | 17.7% (inactive) |

Ask: Tell me measured growth inhibition for O=[N+]([O-])c1cc(N(c2ccccc2)c2ccccc2)c(Cl)cc1Cl please.
Reply: -2.55% (inactive)

Ask: Tell me measured growth inhibition for COC(=O)C1=CN(CCc2ccc(O)cc2)C(=O)C2C1CC(O)C2C (centres undefined) please.
Reply: -2.2% (inactive)

Ask: Tell me measured growth inhibition for CCC[C@@H]1C(=O)N=C(N)N1C(=O)OCc1ccccc1 please.
Reply: 1.8% (inactive)

Ask: Tell me measured growth inhibition for NN=C(c1ccc([N+](=O)[O-])cc1)c1ccc([N+](=O)[O-])cc1 please.
Reply: -9.65% (inactive)

Ask: Tell me measured growth inhibition for COc1ccc2oc(=N)c(C(=O)Nc3ccccc3)cc2c1 please.
Reply: 4.9% (inactive)

Ask: Tell me measured growth inhibition for CC(=O)c1ccc2c(c1)NC(=O)CC(C)N2 (centres undefined) please.
Reply: -25.6% (inactive)

Ask: Tell me measured growth inhibition for CCCCCCCCCCCCCCCCCCS(=O)(=O)CC(O)CO (centres undefined) please.
Reply: 2.4% (inactive)

Ask: Tell me measured growth inhibition for O=C1CSC(c2ccc([N+](=O)[O-])cc2)N1c1ccc(-n2c(-c3ccccc3)nc3ccccc3c2=O)cc1 (centres undefined) please.
Reply: -10.5% (inactive)

Ask: Tell me measured growth inhibition for CCC(C)C(O)C(C(=O)O)C1CCCCC1 (centres undefined) please.
Reply: 39.5% (inactive)

Ask: Tell me measured growth inhibition for CCN(CC)CCNc1c(OC)c(OC)cc2nccnc12 please.
Reply: 2.85% (inactive)

Ask: Tell me measured growth inhibition for COc1c2c(cc3c1C(=O)c1c(O)cccc1C3=O)CC(O)CC2 (centres undefined) please.
Reply: -10.5% (inactive)

Ask: Tell me measured growth inhibition for CC1OC(n2cnc3c(NC(=O)c4ccccc4)ncnc32)C(O)C2OC12 (centres undefined) please.
Reply: 13.4% (inactive)

Ask: Tell me measured growth inhibition for CNC(=O)NC(c1ccc(F)cc1)c1cc2c(cc1O)OCO2 (centres undefined) please.
Reply: 12.6% (inactive)
